Listed next: entries and their corresponding viability.
Assay: viability of PTEN-null HCT116 cells – cell-based, HCT116 clonal line, CellTiter-Glo, pilot screen (AID 824);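 further: 0% = 20 µM Hyamine control and 100% = vehicle cell control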
Settings: HCT116 PTEN-deleted viability, 60 h, at 10 µM, active compounds read low
Records with an inconclusive call do not appear.

compound	display-unit	viability
O=C1C(Cl)=C(N2CCCCCC2)C(=O)N1c1ccccc1	%	93.2
Cn1c(C(=O)Nc2ccc3c(c2)OCO3)cc2c(=O)n(C)c3ccccc3c21	%	91.5
CCCc1cc(C(=O)NCCc2ccc(OC)c(OC)c2)no1	%	97.2
COCCCNC(=O)CC1Oc2ccccc2NC1=O (configuration not stated)	%	102
COc1ccc(N(CC(=O)N2CCc3ccccc3C2)S(=O)(=O)c2c(C)[nH]c(=O)[nH]c2=O)cc1	%	99.5
Cc1c(C(=O)O)oc2ccc(S(=O)(=O)N3CCCCC3C(=O)O)cc12 (configuration not stated)	%	101
COc1ccccc1NCN1C(=O)CCC1=O	%	95.5
COc1ccccc1OCC(O)CN1C(=O)NC(C)(C)C1=O (configuration not stated)	%	91.6
Cc1cc(OC2CCCCC2)nc(-c2ccccc2O)n1	%	81.5
CCC(CC)C(=O)Nc1cc(=O)n(C)c(=O)n1C	%	87.4
CN(CCNS(=O)(=O)c1ccc2c(c1)oc(=O)n2C)Cc1ccccc1	%	90.2
CCCCOCCCNC(=O)COc1ccccc1	%	97.5
CC(NC(=O)c1cc2c(=O)n(C)c3ccccc3c2n1C)c1ccc2c(c1)OCCO2 (configuration not stated)	%	58.2
Cc1cc2cc(CNC(=O)C3CCCC3)ccc2n1C	%	91
CCOC(=O)c1cc2c(=O)n3ccccc3nc2n(CCCOC)c1=NC(C)=O	%	100
O=C(Cn1ncc2c1-c1ccccc1OC2)N1CCc2ccccc21	%	88.4
O=S(=O)(NC1CCCCC1)c1ccc(Br)cc1	%	89.8
CSc1ccc(CN2CCC(O)CC2)cc1	%	100
CCOC(=O)c1c(C)n(OCc2ccccc2)c2ccc3c(no[n+]3[O-])c12	%	62.9
CC(=O)NCC(=O)N(Cc1ccco1)C1(C(=O)NC2CCCCC2)CCCCC1	%	90
CCOC(=O)c1c(NC(=O)c2cccs2)sc2c1CCC2	%	90.4
Cc1ccc(Cl)cc1N1CCN(C(=O)C2CCC(=O)N2C(C)C)CC1 (configuration not stated)	%	85.8
CCc1ccc(-n2c(O)cnc2Nc2nc(C)cc(C)n2)cc1	%	103
O=C(CN1C(=O)c2ccccc2S1(=O)=O)NC1CCCCCC1	%	101
O=C(COC(=O)C1CC2C=CC1C2)Nc1ccc2c(c1)OC(F)(F)O2 (configuration not stated)	%	96.2
COC(=O)Cc1cc(=O)[nH]c(Nc2nc3ccccc3o2)n1	%	97.9
COC(=O)C1C(=O)c2c([nH]c(C(=O)OC3CCCCCC3)c2C)CC1C (configuration not stated)	%	91.1
COc1ccc(S(=O)(=O)NCc2ccc3c(c2)OCO3)cc1C(=O)O	%	95.4
O=C(COC(=O)c1cnccn1)c1ccc2c(c1)CCCC2	%	88.6
CCC(=O)N1c2ccccc2NC2=C(C(=O)CC(c3ccco3)C2)C1c1ccco1 (configuration not stated)	%	92.4
CCOC(=O)c1cnc2c(Cl)cc(Cl)cc2c1NCCOCCO	%	74.4
Cc1ccc(-n2nc(C)c3c2OC(N)=C(C#N)C3c2cccs2)cc1 (configuration not stated)	%	88.5
O=C(CC1Oc2ccccc2NC1=O)NCCc1ccccc1 (configuration not stated)	%	105
O=C(COC(=O)C1(c2ccccc2F)CCCC1)NC1CCS(=O)(=O)C1 (configuration not stated)	%	95.3
CCCn1c(NCc2cc(C)ccc2O)nc2ccccc21	%	60.1
CC1(C)Cc2c(C#N)c(N)sc(=S)c2CO1	%	106
O=C(O)c1ccccc1S(=O)(=O)NCC(O)COc1ccc(Br)cc1 (configuration not stated)	%	100
COc1ccc(Cl)cc1S(=O)(=O)N1CCN(c2ccc(F)cc2)CC1	%	89.7
Cc1noc(C)c1CSc1ccccc1C(=O)N1CCN(c2ccccc2)CC1	%	72.3
COC(=O)NCc1ccc(Cl)c(Cl)c1	%	88.6
CC1CC(C)CN(Cc2nc3c(c(=O)n(C)c(=O)n3C)n2Cc2ccccc2Cl)C1 (configuration not stated)	%	97.8
O=C(Cn1cc2c(n1)CCCC2)NC1CCN(Cc2ccccc2)CC1	%	87
COc1ccc(N2CCN(c3oc(COc4ccccc4Cl)nc3C#N)CC2)cc1	%	64.9
Cn1c(Cc2ccccc2)nnc1SCC(=O)NC1CCCCC1	%	103
CC1CN(c2c3c(nc4ncnn24)CCCC3)CC(C)O1 (configuration not stated)	%	90.8
O=C(CSC1=NCCS1)NCc1ccco1	%	100
Cc1ccc(C)c(N2CCN(C(=O)c3cc4ccccn4n3)CC2)c1	%	92.5
